ENDPOINT: melting point

For orientation, consider the following solved cases.
COMPOUND	melting point
Cc1ncsc1-c1nnc(SCCCN2CCc3ccc(S(=O)(=O)NCc4ccccc4)cc3C2)n1C [Example 9]	67 to 70 °C
CCN(CC)Cc1ccc2c(c1)CN(CCCSc1nnc(-c3ccccc3)n1C)CC2.Cl.Cl	75 °C
Cl.Cn1c(CCCCN2CCc3ccc(C#N)cc3C2)nnc1-c1ccccc1	175 °C
COC(=O)c1ccc2c(c1)CN(CCCSc1nnc(-c3ccccc3)n1C)CC2.O=C(O)C(=O)O	160 to 163 °C

Q. Look at this compound and give its reported melting point. Cn1c(SCCCN2CCc3cc(Cl)c(Cl)cc3C2)nnc1-c1ccccc1 [Example 28]
A. 138 to 139 °C

Q. Look at this compound and give its reported melting point. C=C(CSc1nnc(-c2ccccc2)n1C)CN1CCc2ccc([N+](=O)[O-])cc2C1.Cl
A. 146 to 150 °C

Q. Look at this compound and give its reported melting point. Cl.Cn1c(SCCCN2CCc3cc(C(F)(F)F)ccc3C2)nnc1-c1ccsc1
A. 184 to 185 °C

Q. Look at this compound and give its reported melting point. Cl.Cl.Cn1c(SCCCN2CCc3ccccc3C2)nnc1-c1cccnc1
A. 87 to 89 °C

Q. Look at this compound and give its reported melting point. Cl.Cn1c(SCCCN2CCc3ccc(C(F)(F)F)cc3C2)nnc1-c1ccccc1
A. 205 to 207 °C

Q. Look at this compound and give its reported melting point. Cn1c(SCCCN2CCc3ccc(S(=O)(=O)Nc4ccccc4)cc3C2)nnc1-c1cccnc1 [Example 25]
A. 58 to 61 °C

Hello, the source for this data is patent US6602867B1, in case you need it.
